The values you see were collected from paper PMC8246649.

Molecular target: UNC119B, full-length, C-terminal His6 (human, UniProt A6NIH7 1-251)
Assay: fluorescence polarisation
No end group written: not given here. *: point of attachment. Myristoyl = CCCCCCCCCCCCCC(=O)*
MEASUREMENT_TYPE: Kd (nM)
Numbers only, in nM.

Example entries and their recorded answers appear below.
BINDER | ENDPOINT_UNIT | OBSERVED_RESULT
Myristoyl-GTASSLVSPAGGK(FAM) [NPHP3 peptide Myr-GTASSLVSPAGGK-FAM] | nM | 0.17
GCGCSSHPEDK (not fully specified; N-terminal myristoyl on Gly; FAM on the C-terminal Lys) [LCK peptide Myr-GCGCSSHPEDK-FAM] | nM | 0.37

# evaluate next
// field: Kd; key: Myristoyl-GGAVSAGEDNDDK(FAM) [PCMTD1 peptide Myr-GGAVSAGEDNDDK-FAM] ; value = 72.6
